Reported IC50 values follow for various molecules
Test: Cell-based activity under Prompt Conditions: Cell-based activity under Prompt Conditions. Rat or human NHE3-mediated Na+-dependent H+ antiport was measured using a modification of the pH sensitive dye method originally reported by Paradiso (PNAS USA. 81:7436-7440, 1984). Opossum kidney (OK) cells were obtained from the ATCC and propagated per their instructions. The rat NHE3 gene (GenBank M85300) or the human NHE3 gene (GenBank NM_004174.1) was introduced into OK cells via electroporation, and cells were seeded into 96 well plates and grown overnight. Medium was aspirated from the wells, cells were washed twice with NaCl-HEPES buffer (100 mM NaCl, 50 mM HEPES, 10 mM glucose, 5 mM KCl, 2 mM CaCl2, 1 mM MgCl2, pH 7.4), then incubated for 30 min at room temperature with NH4Cl-HEPES buffer (20 mM NH4Cl, 80 mM NaCl, 50 mM HEPES, 5 mM KCl, 2 mM CaCl2, 1 mM MgCl2, pH 7.4) containing 5 μM bis(acetoxymethyl) 3,3′-(3′,6′-bis(acetoxymethoxy)-5-((acetoxymethoxy)carbonyl)-3-oxo-3H-spiro[isobenzofuran-1,9′-xanthene]-2′,7′-diyl)dipropanoate (BCECF-AM).Cells were washed twice with Ammonium free, Na+-free HEPES (100 mM choline, 50 mM HEPES, 10 mM glucose, 5 mM KCl, 2 mM CaCl2, 1 mM MgCl2, pH 7.4) and incubated in the same buffer for 10 minutes at room temperature to lower intracellular pH. […] Initial rates were plotted as the average 2 or more replicates, and pIC50 values were estimated using GraphPad Prism.

recordSmiles	IC50
CN(C)[C@H]1Cc2ccc(Cl)cc2[C@@H]1Oc1ccc(S(=O)(=O)NCCOCCOCCNC(=O)NCCCCNC(=O)NCCOCCOCCNS(=O)(=O)c2ccc(O[C@H]3c4cc(Cl)ccc4C[C@@H]3N(C)C)cc2)cc1	< 10 µM
CN1Cc2c(Cl)cc(Cl)cc2[C@H](c2cccc(S(=O)(=O)NCCOCCOCCNC(=O)NCCN(CCNC(=O)NCCOCCOCCNS(=O)(=O)c3cccc([C@@H]4CN(C)Cc5c(Cl)cc(Cl)cc54)c3)C(=O)CCCCCCCCCCC(=O)N(CCNC(=O)NCCOCCOCCNS(=O)(=O)c3cccc([C@@H]4CN(C)Cc5c(Cl)cc(Cl)cc54)c3)CCNC(=O)NCCOCCOCCNS(=O)(=O)c3cccc([C@@H]4CN(C)Cc5c(Cl)cc(Cl)cc54)c3)c2)C1	< 10 µM

Input: Name the recorded IC50 for `O=C(NCCCCNC(=O)NCCOCCOCCNC(=O)Nc1cccc(O[C@H]2c3ccccc3C[C@@H]2N2CCCCC2)c1)NCCOCCOCCNC(=O)Nc1cccc(O[C@H]2c3ccccc3C[C@@H]2N2CCCCC2)c1` .
Output: < 10 µM

###

Test: Cell-based activity under Prompt Conditions: Cell-based activity under Prompt Conditions. Rat or human NHE3-mediated Na+-dependent H+ antiport was measured using a modification of the pH sensitive dye method originally reported by Paradiso (PNAS USA. 81:7436-7440, 1984). Opossum kidney (OK) cells were obtained from the ATCC and propagated per their instructions. The rat NHE3 gene (GenBank M85300) or the human NHE3 gene (GenBank NM_004174.1) was introduced into OK cells via electroporation, and cells were seeded into 96 well plates and grown overnight. Medium was aspirated from the wells, cells were washed twice with NaCl-HEPES buffer (100 mM NaCl, 50 mM HEPES, 10 mM glucose, 5 mM KCl, 2 mM CaCl2, 1 mM MgCl2, pH 7.4), then incubated for 30 min at room temperature with NH4Cl-HEPES buffer (20 mM NH4Cl, 80 mM NaCl, 50 mM HEPES, 5 mM KCl, 2 mM CaCl2, 1 mM MgCl2, pH 7.4) containing 5 μM bis(acetoxymethyl) 3,3′-(3′,6′-bis(acetoxymethoxy)-5-((acetoxymethoxy)carbonyl)-3-oxo-3H-spiro[isobenzofuran-1,9′-xanthene]-2′,7′-diyl)dipropanoate (BCECF-AM).Cells were washed twice with Ammonium free, Na+-free HEPES (100 mM choline, 50 mM HEPES, 10 mM glucose, 5 mM KCl, 2 mM CaCl2, 1 mM MgCl2, pH 7.4) and incubated in the same buffer for 10 minutes at room temperature to lower intracellular pH. […] Initial rates were plotted as the average 2 or more replicates, and pIC50 values were estimated using GraphPad Prism.
pIC50: −log10 of the molar value.
outcomeMeasure: pIC50

Sample records with pIC50:
recordSmiles	pIC50
CN1Cc2c(Cl)cc(Cl)cc2[C@H](c2cccc(S(=O)(=O)NCCOCCOCCOCCNCc3ccc(-c4ccc(Cl)cc4)cc3)c2)C1	> 5.00
CN1Cc2c(Cl)cc(Cl)cc2[C@H](c2cccc(S(=O)(=O)NCCOCCOCCNC(=O)CCC(CCC(=O)NCCOCCOCCNS(=O)(=O)c3cccc([C@@H]4CN(C)Cc5c(Cl)cc(Cl)cc54)c3)(CCC(=O)NCCOCCOCCNS(=O)(=O)c3cccc([C@@H]4CN(C)Cc5c(Cl)cc(Cl)cc54)c3)NC(=O)NC(CO)(CO)CO)c2)C1	> 5.00

Input: Name the recorded pIC50 for `O=C(NCCCCNC(=O)NCCOCCOCCNS(=O)(=O)c1ccc(O[C@H]2c3cc(Cl)cc(F)c3C[C@@H]2N2CC[C@@H](O)C2)cc1)NCCOCCOCCNS(=O)(=O)c1ccc(O[C@H]2c3cc(Cl)cc(F)c3C[C@@H]2N2CC[C@@H](O)C2)cc1` .
Output: > 5.00

###

Test: Cell-based activity under Prompt Conditions: Cell-based activity under Prompt Conditions. Rat or human NHE3-mediated Na+-dependent H+ antiport was measured using a modification of the pH sensitive dye method originally reported by Paradiso (PNAS USA. 81:7436-7440, 1984). Opossum kidney (OK) cells were obtained from the ATCC and propagated per their instructions. The rat NHE3 gene (GenBank M85300) or the human NHE3 gene (GenBank NM_004174.1) was introduced into OK cells via electroporation, and cells were seeded into 96 well plates and grown overnight. Medium was aspirated from the wells, cells were washed twice with NaCl-HEPES buffer (100 mM NaCl, 50 mM HEPES, 10 mM glucose, 5 mM KCl, 2 mM CaCl2, 1 mM MgCl2, pH 7.4), then incubated for 30 min at room temperature with NH4Cl-HEPES buffer (20 mM NH4Cl, 80 mM NaCl, 50 mM HEPES, 5 mM KCl, 2 mM CaCl2, 1 mM MgCl2, pH 7.4) containing 5 μM bis(acetoxymethyl) 3,3′-(3′,6′-bis(acetoxymethoxy)-5-((acetoxymethoxy)carbonyl)-3-oxo-3H-spiro[isobenzofuran-1,9′-xanthene]-2′,7′-diyl)dipropanoate (BCECF-AM).Cells were washed twice with Ammonium free, Na+-free HEPES (100 mM choline, 50 mM HEPES, 10 mM glucose, 5 mM KCl, 2 mM CaCl2, 1 mM MgCl2, pH 7.4) and incubated in the same buffer for 10 minutes at room temperature to lower intracellular pH. […] Initial rates were plotted as the average 2 or more replicates, and pIC50 values were estimated using GraphPad Prism.
Reported IC50 values follow for various compounds

recordSmiles	IC50
CC(C)CCC[C@@H](C)[C@H]1CC[C@H]2[C@@H]3CC=C4C[C@@H](OC(=O)NCCOCCOCCOCCNS(=O)(=O)c5cccc([C@@H]6CN(C)Cc7c(Cl)cc(Cl)cc76)c5)CC[C@]4(C)[C@H]3CC[C@]12C	< 10 µM
CCCCCCCCCCC(=O)NC(CCC(=O)NCCOCCOCCNS(=O)(=O)c1cccc([C@@H]2CN(C)Cc3c(Cl)cc(Cl)cc32)c1)(CCC(=O)NCCOCCOCCNS(=O)(=O)c1cccc([C@@H]2CN(C)Cc3c(Cl)cc(Cl)cc32)c1)CCC(=O)NCCOCCOCCNS(=O)(=O)c1cccc([C@@H]2CN(C)Cc3c(Cl)cc(Cl)cc32)c1	< 10 µM

Input: Name the recorded IC50 for `CCCCCCCCCCC(=O)NCCOCCOCCOCCNS(=O)(=O)c1cccc([C@@H]2CN(C)Cc3c(Cl)cc(Cl)cc32)c1` .
Output: < 10 µM

###

Reported pIC50 values follow for various molecules
Test: Cell-based activity under Prompt Conditions: Cell-based activity under Prompt Conditions. Rat or human NHE3-mediated Na+-dependent H+ antiport was measured using a modification of the pH sensitive dye method originally reported by Paradiso (PNAS USA. 81:7436-7440, 1984). Opossum kidney (OK) cells were obtained from the ATCC and propagated per their instructions. The rat NHE3 gene (GenBank M85300) or the human NHE3 gene (GenBank NM_004174.1) was introduced into OK cells via electroporation, and cells were seeded into 96 well plates and grown overnight. Medium was aspirated from the wells, cells were washed twice with NaCl-HEPES buffer (100 mM NaCl, 50 mM HEPES, 10 mM glucose, 5 mM KCl, 2 mM CaCl2, 1 mM MgCl2, pH 7.4), then incubated for 30 min at room temperature with NH4Cl-HEPES buffer (20 mM NH4Cl, 80 mM NaCl, 50 mM HEPES, 5 mM KCl, 2 mM CaCl2, 1 mM MgCl2, pH 7.4) containing 5 μM bis(acetoxymethyl) 3,3′-(3′,6′-bis(acetoxymethoxy)-5-((acetoxymethoxy)carbonyl)-3-oxo-3H-spiro[isobenzofuran-1,9′-xanthene]-2′,7′-diyl)dipropanoate (BCECF-AM).Cells were washed twice with Ammonium free, Na+-free HEPES (100 mM choline, 50 mM HEPES, 10 mM glucose, 5 mM KCl, 2 mM CaCl2, 1 mM MgCl2, pH 7.4) and incubated in the same buffer for 10 minutes at room temperature to lower intracellular pH. […] Initial rates were plotted as the average 2 or more replicates, and pIC50 values were estimated using GraphPad Prism.
# pIC50 is unitless: minus log10 of the molar concentration; print number only

recordSmiles	outcomeMeasure	experimentalValue
CN(C)[C@H]1Cc2c(Cl)cc(Cl)cc2[C@@H]1Oc1ccc(S(=O)(=O)NCCOCCOCCNC(=O)NCCCCNC(=O)NCCOCCOCCNS(=O)(=O)c2ccc(O[C@H]3c4cc(Cl)cc(Cl)c4C[C@@H]3N(C)C)cc2)cc1	pIC50	8.20

Input: Name the recorded pIC50 for `CN1Cc2c(Cl)cc(Cl)cc2[C@H](c2cccc(S(=O)(=O)N(C)CCOCCOCCNC(=O)CCN(CCC(=O)NCCOCCOCCN(C)S(=O)(=O)c3cccc([C@@H]4CN(C)Cc5c(Cl)cc(Cl)cc54)c3)CCC(=O)NCCOCCOCCN(C)S(=O)(=O)c3cccc([C@@H]4CN(C)Cc5c(Cl)cc(Cl)cc54)c3)c2)C1` .
Output: 6.50

Input: Name the recorded pIC50 for `CN1Cc2c(Cl)cc(Cl)cc2[C@H](c2cccc(S(=O)(=O)NCCOCCOCCNC(=O)CN(CC(=O)NCCOCCOCCNS(=O)(=O)c3cccc([C@@H]4CN(C)Cc5c(Cl)cc(Cl)cc54)c3)CC(=O)NCCOCCOCCNS(=O)(=O)c3cccc([C@@H]4CN(C)Cc5c(Cl)cc(Cl)cc54)c3)c2)C1` .
Output: 6.30

Input: Name the recorded pIC50 for `CN1Cc2c(Cl)cc(Cl)cc2[C@H](c2cccc(S(=O)(=O)NCCOCCOCCNC(=O)NCCC[N+](C)(CCCNC(=O)NCCOCCOCCNS(=O)(=O)c3cccc([C@@H]4CN(C)Cc5c(Cl)cc(Cl)cc54)c3)CCCNC(=O)NCCOCCOCCNS(=O)(=O)c3cccc([C@@H]4CN(C)Cc5c(Cl)cc(Cl)cc54)c3)c2)C1` .
Output: 7.40

Input: Name the recorded pIC50 for `CN1Cc2c(Cl)cc(Cl)cc2[C@H](c2cccc(S(=O)(=O)NCCOCCOCCNC(=O)CCC(CCC(=O)NCCOCCOCCNS(=O)(=O)c3cccc([C@@H]4CN(C)Cc5c(Cl)cc(Cl)cc54)c3)(CCC(=O)NCCOCCOCCNS(=O)(=O)c3cccc([C@@H]4CN(C)Cc5c(Cl)cc(Cl)cc54)c3)NC(=O)NCCN3CCOCC3)c2)C1` .
Output: 7.20
